- assay_system: Cytochrome P450 1A2 (Homo sapiens) (UniProt P05177)
- Sequence (P05177 whole entry, looked up): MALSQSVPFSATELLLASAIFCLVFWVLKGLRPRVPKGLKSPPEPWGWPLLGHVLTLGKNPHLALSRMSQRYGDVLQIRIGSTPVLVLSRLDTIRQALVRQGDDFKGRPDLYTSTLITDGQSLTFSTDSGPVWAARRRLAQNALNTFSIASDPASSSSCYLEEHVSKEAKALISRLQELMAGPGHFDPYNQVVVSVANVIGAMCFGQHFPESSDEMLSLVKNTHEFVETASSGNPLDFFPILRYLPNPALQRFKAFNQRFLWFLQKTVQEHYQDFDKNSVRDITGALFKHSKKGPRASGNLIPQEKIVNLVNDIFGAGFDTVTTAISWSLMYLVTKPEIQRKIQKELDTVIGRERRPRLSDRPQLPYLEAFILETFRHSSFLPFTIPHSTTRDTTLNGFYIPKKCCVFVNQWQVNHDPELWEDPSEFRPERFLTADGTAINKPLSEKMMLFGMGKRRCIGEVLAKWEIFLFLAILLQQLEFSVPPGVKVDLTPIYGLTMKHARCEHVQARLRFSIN
- experimental_protocol: p450-cyp1a2 (AID 410)
- conditions: recombinant CYP1A2, luciferin-ME demethylation, luminescence; series mostly up to 57 µM
Records with an inconclusive call do not appear. Active and inactive are the calls of the source. The call rests on the fitted dose curve.
Please reply with one of these outcomes: True for active, False for inactive

CCC(=O)N1CCN(C(=O)c2ccccc2)CC1: False
N=C(N)c1ccccc1: False
COc1cc(CC(=O)O)ccc1O: False
N=C(N)c1ccc(N)cc1: False
O=C(O)/C(=C/c1c(C(=O)O)[nH]c2cc(Cl)cc(Cl)c12)c1ccccc1: True
CCN1C(=O)C=CC1=O: False
COc1ccc(CCN(C)CCc2ccc(OC)c(OC)c2)cc1OC: False
C[C@](Cc1ccc(O)c(O)c1)(NN)C(=O)O: True
CCN(CC)CCCCCCCCOC(=O)c1cc(OC)c(OC)c(OC)c1: False
O=C(O)Cc1c[nH]c2ccc(O)cc12: False

Req: What classification did O=c1ccc2c(OCCCCc3ccccc3)c3ccoc3cc2o1 end up with in this test?
Resp: True

Req: What classification did C=CC[C@H](N)C(=O)O end up with in this test?
Resp: False

Req: What classification did CC(=O)C(C)=O end up with in this test?
Resp: False

Req: What classification did CCCCCCC/C=C\CCCCCCCCC(=O)O end up with in this test?
Resp: True
